target: Potassium channel subfamily K member 9 (Homo sapiens); test: blockers of human TASK-3 (KCNK9) channel – HEK293 cells, thallium flux, primary screen (AID 488922); conditions: HEK293 KCNK9, FluxOR thallium flux fluorescence, at 10 µM
About 3,800 (1.2%) of roughly 310,000 compounds were called active.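 Rule for the calls: active = ratio B-score over 3 SD below the library mean, with starting fluorescence within 5 SD of its mean; inactive = the rest, inconclusive results apart.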 Many of the other results were omitted from the sample, so actives are more common in it than they were.
Answer with one of the outcomes active, inactive

Problem: Per the assay record, what outcome was assigned to COc1cccc(OC)c1C(=O)Nc1nnc(C(C)C)s1 ?
Result: inactive

Problem: Per the assay record, what outcome was assigned to COc1ccccc1N1CC(C(=O)Nc2nnc(SCC(=O)NCC3CCCO3)s2)CC1=O (configuration not stated) ?
Result: inactive

Problem: Per the assay record, what outcome was assigned to COc1cc(OC)cc(C(=O)OCC(=O)Nc2sccc2C(N)=O)c1 ?
Result: inactive

Problem: Per the assay record, what outcome was assigned to CCOc1ncccc1C(=O)NCCc1ccc(OC)cc1 ?
Result: inactive

Problem: Per the assay record, what outcome was assigned to CC(=O)c1ccccc1OCc1ccc(C(=O)c2ccccc2)cc1 ?
Result: active

Problem: Per the assay record, what outcome was assigned to OC(COCCC12CC3CC(CC(C3)C1)C2)CN1CCCCC1 (configuration not stated) ?
Result: inactive

Problem: Per the assay record, what outcome was assigned to COc1ccccc1NC(=O)C1=C(C)Nc2nc3ccccc3n2C1c1cccs1 (configuration not stated) ?
Result: inactive

Problem: Per the assay record, what outcome was assigned to COc1ccc(OCCCC(=O)NCCc2ccccc2)cc1 ?
Result: inactive

Problem: Per the assay record, what outcome was assigned to CC(OC(=O)c1ccccc1OCc1ccc(Cl)cc1)C(N)=O (configuration not stated) ?
Result: inactive

Problem: Per the assay record, what outcome was assigned to CC1(C)CC(=O)CC2(C1)NCC(c1ccccc1Cl)c1c2[nH]c2ccccc12 (configuration not stated) ?
Result: active

Problem: Per the assay record, what outcome was assigned to CCOc1ncccc1C(=O)OCC(=O)NC1CC1 ?
Result: inactive

Problem: Per the assay record, what outcome was assigned to NC(=O)c1c(NC(=O)c2ccccc2)sc2c1CCCC2 ?
Result: inactive

* * *

molecular target: Potassium channel subfamily K member 9 (Homo sapiens) (UniProt Q9NPC2); assay: blockers of human TASK-3 (KCNK9) channel – HEK293 cells, thallium flux, primary screen (AID 488922); conditions: HEK293 KCNK9, FluxOR thallium flux fluorescence, at 10 µM; active compounds read low;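 for B-score: negative B-score means less thallium flux so channel inhibition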
Sequence (Q9NPC2 whole entry, looked up): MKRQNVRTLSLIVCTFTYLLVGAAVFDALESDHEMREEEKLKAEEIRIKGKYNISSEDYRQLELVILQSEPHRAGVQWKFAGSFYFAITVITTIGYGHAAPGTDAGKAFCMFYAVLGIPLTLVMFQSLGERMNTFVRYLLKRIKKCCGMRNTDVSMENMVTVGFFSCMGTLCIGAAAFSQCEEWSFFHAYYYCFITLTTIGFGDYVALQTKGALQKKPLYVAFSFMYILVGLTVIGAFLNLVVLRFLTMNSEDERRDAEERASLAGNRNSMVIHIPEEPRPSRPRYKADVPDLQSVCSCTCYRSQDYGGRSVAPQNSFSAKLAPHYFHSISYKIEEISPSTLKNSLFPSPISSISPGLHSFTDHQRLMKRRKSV
The whole screen tested about 310,000 compounds, of which about 3,800 (1.2%) were called active. This excerpt belongs to a sample that is enriched for actives.
Readout type: B-score

Known B-score results, listed for orientation:
compound=Cn1nc(-c2ccc(Cl)cc2)c2cc(C(=O)NCc3ccco3)sc21 result=inactive
compound="Cc1c(OC(C)C(=O)N[C@@H](Cc2ccccc2)C(=O)O)ccc2c3c(c(=O)oc12)CCCC3 (stereo partly drawn)" result=inactive
compound=COc1cccc(-c2cc(C(=O)N3CCN(c4ccccc4OC)CC3)no2)c1 result=inactive
compound=Cc1ccc(C(=O)NC2CCN(C(=O)Nc3ccc(F)cc3)CC2)cc1 result=inactive
compound="CCC(C)NC(=O)CN(C1CCCCC1)S(C)(=O)=O (stereo not drawn)" result=inactive

Problem: Consider the compound COc1ccccc1N1CCN(C(=O)c2cc3c(-c4ccc(Cl)cc4)nn(C)c3s2)CC1 and give its recorded B-score.
Result: -13.6 (active)

Problem: Consider the compound O=C(O)COCC(=O)NCc1csc2ccc(Cl)cc12 and give its recorded B-score.
Result: inactive

Problem: Consider the compound COc1ccc(NC(=O)CN(C)C(=O)CC2CCCCC2)cc1 and give its recorded B-score.
Result: inactive

Problem: Consider the compound C[C@@H]1O[C@@H](OC[C@H]2O[C@@H](Oc3c(-c4ccc(O)cc4)oc4cc(O)cc(O)c4c3=O)[C@H](O)[C@@H](O)[C@@H]2O)[C@H](O)[C@H](O)[C@H]1O and give its recorded B-score.
Result: inactive

* * *

target: Potassium channel subfamily K member 9 (Homo sapiens); test: blockers of human TASK-3 (KCNK9) channel – HEK293 cells, thallium flux, primary screen (AID 488922); details: HEK293 KCNK9, FluxOR thallium flux fluorescence, at 10 µM
In all, about 310,000 compounds went through this assay and about 3,800 (1.2%) were called active.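 Rule for the calls: active = ratio B-score over 3 SD below the library mean, with starting fluorescence within 5 SD of its mean; inactive = the rest, inconclusive results apart.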 For the sample, actives were picked, then their nearest neighbours and some compounds at random.
Answer with one of the outcomes active, inactive

Problem: Per the assay record, what outcome was assigned to COc1ccc(CNS(=O)(=O)c2ccc(NC(=O)N3CCCCC3)cc2)cc1 ?
Result: inactive

Problem: Per the assay record, what outcome was assigned to CCOc1ccc2[nH]c(=O)c(CN(Cc3nnnn3CCc3ccccc3)CC3CCCO3)cc2c1 (stereo unspecified) ?
Result: active

Problem: Per the assay record, what outcome was assigned to CC(C)(C)OC(=O)NNc1c2ccccc2nc2ccccc12 ?
Result: inactive

Problem: Per the assay record, what outcome was assigned to CC(C)CNC(=O)C(=O)NCC(c1ccc2c(c1)OCO2)N1CCOCC1 (stereo unspecified) ?
Result: inactive

Problem: Per the assay record, what outcome was assigned to COc1cccc(CNS(=O)(=O)c2ccc3c(c2)CC(C)N3C(=O)C2CCC2)c1 (stereo unspecified) ?
Result: inactive

Problem: Per the assay record, what outcome was assigned to CN(CCC(=O)Nc1cc(S(=O)(=O)N(C)C)ccc1Cl)CC(=O)Nc1ccc(F)cc1 ?
Result: active

Problem: Per the assay record, what outcome was assigned to O=C(O)CN1CCN(C(c2ccccc2)c2ccccc2)CC1 ?
Result: inactive

Problem: Per the assay record, what outcome was assigned to CCOc1ccc2[nH]c(=O)c(CN(Cc3nnnn3Cc3ccccc3)CC3CCCO3)cc2c1 (stereo unspecified) ?
Result: inactive

Problem: Per the assay record, what outcome was assigned to O=C(N/N=C/c1cccnc1)c1cc2ccccc2cc1O ?
Result: inactive

Problem: Per the assay record, what outcome was assigned to CN(CC(=O)Nc1ccc(F)cc1)CC(=O)Nc1ccc(Cl)c(S(=O)(=O)N2CCOCC2)c1 ?
Result: inactive

Problem: Per the assay record, what outcome was assigned to COc1ccc(Nc2ncnc3ccc(Br)cc23)c(OC)c1 ?
Result: inactive

Problem: Per the assay record, what outcome was assigned to CCC1(C)Cc2c(sc3nc(SC)[nH]c(=O)c23)CO1 (stereo unspecified) ?
Result: inactive

Problem: Per the assay record, what outcome was assigned to CN(CC(=O)Nc1ccc(S(=O)(=O)N2CCCC2)cc1)Cc1ccc(Cl)c(Cl)c1 ?
Result: inactive

Problem: Per the assay record, what outcome was assigned to Cc1ccc(-n2c(SCC(=O)Nc3ncc(Cl)cc3Cl)nc3ccccc32)cc1 ?
Result: inactive

Problem: Per the assay record, what outcome was assigned to Cc1cccc(C(=O)NCc2nnc(SC(C)C(=O)Nc3nnc(C)s3)n2C)c1 (stereo unspecified) ?
Result: inactive

Problem: Per the assay record, what outcome was assigned to COc1ccc2[nH]c(=O)c(CN(Cc3nnnn3CCc3ccccc3)CC3CCCO3)cc2c1 (stereo unspecified) ?
Result: inactive

Problem: Per the assay record, what outcome was assigned to O=C(NNc1c2ccccc2nc2ccccc12)c1cc2ccccc2cc1O ?
Result: active

Problem: Per the assay record, what outcome was assigned to CC1(C)CC(N2CCN(C(c3ccccc3)c3ccccc3)CC2)=CC(=[N+]2CCCCC2)C1 ?
Result: active

Problem: Per the assay record, what outcome was assigned to COc1ccc(Nc2ncnc3sc(-c4ccccc4)cc23)c(OC)c1 ?
Result: active

Problem: Per the assay record, what outcome was assigned to COc1ccc(C(=O)NC2(C(F)(F)F)NC(=O)N(CCCc3ccccc3)C2=O)c(OC)c1OC (stereo unspecified) ?
Result: inactive

Problem: Per the assay record, what outcome was assigned to CC1(C)CC(=O)C=C(N2CCCC2)C1 ?
Result: inactive

* * *

molecular target: Potassium channel subfamily K member 9 (Homo sapiens) (UniProt Q9NPC2); test: blockers of human TASK-3 (KCNK9) channel – HEK293 cells, thallium flux, primary screen (AID 488922); settings: HEK293 KCNK9, FluxOR thallium flux fluorescence, at 10 µM
Out of some 310,000 compounds screened, about 3,800 (1.2%) were called active.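 Rule for the calls: active = ratio B-score over 3 SD below the library mean, with starting fluorescence within 5 SD of its mean; inactive = the rest, inconclusive results apart.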 This is one part of a sample in which actives are shown more often than they occur.
Answer with one of the outcomes label 1 = active, label 0 = inactive

Problem: Per the assay record, what outcome was assigned to Cc1csc(=Nc2ccccc2)n1CCO ?
Result: label 0

Problem: Per the assay record, what outcome was assigned to CC1CCN(C(=O)c2ccc(CSc3ccc(Cl)cc3)cc2)CC1 ?
Result: label 1

Problem: Per the assay record, what outcome was assigned to Cc1cccc2cc(CN(Cc3ccc4c(c3)OCO4)Cc3nnnn3C3CCCC3)c(=O)[nH]c12 ?
Result: label 0

Problem: Per the assay record, what outcome was assigned to CCNC(=O)CSc1nc(-c2ccccc2)cs1 ?
Result: label 0

Problem: Per the assay record, what outcome was assigned to CC(C)[C@@H](NC(=O)OC(C)(C)C)C(=O)NCC1CCC(C(=O)N[C@@H](Cc2ccccc2)C(=O)O)CC1 (some centres undefined) ?
Result: label 0

Problem: Per the assay record, what outcome was assigned to CN1C(C(=O)NCc2ccco2)CC2Cn3c(nc4ccccc43)C21 (centres undefined) ?
Result: label 0

Problem: Per the assay record, what outcome was assigned to Cc1cs/c(=N\N=C\c2ccc(O)cc2)n1Cc1ccco1 ?
Result: label 1

Problem: Per the assay record, what outcome was assigned to Cc1ccc(C2=Nc3c(ccc4ccccc34)C(c3ccncc3)=NN2)cc1 ?
Result: label 1

Problem: Per the assay record, what outcome was assigned to O=C(c1ccc(CSc2ccccc2)cc1)N1CCCCCC1 ?
Result: label 0

Problem: Per the assay record, what outcome was assigned to O=C(CSc1nc(-c2ccccc2)cs1)Nc1cccc([N+](=O)[O-])c1 ?
Result: label 1

Problem: Per the assay record, what outcome was assigned to COC(=O)COc1ccc2c(=O)c(Oc3ccccc3Br)coc2c1 ?
Result: label 0

Problem: Per the assay record, what outcome was assigned to O=C(Cn1nc([N+](=O)[O-])nc1Br)NC1CCCCC1 ?
Result: label 0

Problem: Per the assay record, what outcome was assigned to CC(C)Cc1nnc(NC(=O)CN2C(=O)NC3(CCCCC3)C2=O)s1 ?
Result: label 0

Problem: Per the assay record, what outcome was assigned to O=C(N/C(=C\c1ccc(O)cc1)C(=O)N1CCCCC1)c1ccccc1 ?
Result: label 0

Problem: Per the assay record, what outcome was assigned to O=[N+]([O-])/C=C1\CCCCCN1 ?
Result: label 0

Problem: Per the assay record, what outcome was assigned to CCOC(=O)c1[nH]c(C)c(C(=O)OCC(=O)N2c3ccccc3CC2C)c1C (centres undefined) ?
Result: label 0

Problem: Per the assay record, what outcome was assigned to N#Cc1c(NCCO)ccc([N+](=O)[O-])c1NCCO ?
Result: label 0

Problem: Per the assay record, what outcome was assigned to COc1ccccc1NC(=O)C1CCCN1S(=O)(=O)c1ccc(Cl)cc1 (centres undefined) ?
Result: label 0

Problem: Per the assay record, what outcome was assigned to C[n+]1cc(-c2ccccc2)oc1-c1ccccc1 ?
Result: label 0

Problem: Per the assay record, what outcome was assigned to COc1cc(-c2nnc(Cn3cc(C(F)(F)F)ccc3=O)o2)cc(OC)c1OC ?
Result: label 0

Problem: Per the assay record, what outcome was assigned to Cc1onc(-c2ccccc2Cl)c1C(=O)OCc1nnc(-c2ccccc2)o1 ?
Result: label 0

Problem: Per the assay record, what outcome was assigned to Cc1ccnc(N2C(=O)c3ccccc3C2Nc2ccc3c(c2)OCCO3)c1 (centres undefined) ?
Result: label 0

Problem: Per the assay record, what outcome was assigned to O=C(COC(=O)C1CC2C=CC1C2)Nc1ccccc1 (centres undefined) ?
Result: label 0

Problem: Per the assay record, what outcome was assigned to Cc1cccc2cc(CN(Cc3nnnn3Cc3ccccc3)C3CCCC3)c(=O)[nH]c12 ?
Result: label 1

Problem: Per the assay record, what outcome was assigned to CCN(CC)CCn1cnc2c1c(=O)n(CCOC(=O)c1cc(OC)c(OC)c(OC)c1)c(=O)n2C ?
Result: label 0

Problem: Per the assay record, what outcome was assigned to COc1cccc(CNC(=O)Cn2c(=O)oc3cc(S(=O)(=O)N4CCCCC4)ccc32)c1 ?
Result: label 0

Problem: Per the assay record, what outcome was assigned to COc1ccc(C2NC(=O)N(C)C(C)=C2[N+](=O)[O-])cc1 (centres undefined) ?
Result: label 0

Problem: Per the assay record, what outcome was assigned to COc1ccc(-c2c(C(C)=O)c(C)nc3sc4c(=O)n(-c5ccc(C)cc5)nnc4c23)cc1 ?
Result: label 0

Problem: Per the assay record, what outcome was assigned to COc1ccc(Cl)cc1NC(=O)COC(=O)C(CC(C)C)N1C(=O)C2CC=CCC2C1=O (centres undefined) ?
Result: label 0

Problem: Per the assay record, what outcome was assigned to Cc1cccc2[nH]c(CN(C)C(=O)C3CCC(=O)N(CCc4ccccc4)C3)nc12 (centres undefined) ?
Result: label 0

Problem: Per the assay record, what outcome was assigned to CC(=O)c1ccc(NC(=O)CCNS(=O)(=O)c2cc(Br)cnc2N)cc1 ?
Result: label 0

Problem: Per the assay record, what outcome was assigned to CCc1ccccc1NC1c2ccccc2C(=O)N1c1cccnc1 (centres undefined) ?
Result: label 0

Problem: Per the assay record, what outcome was assigned to Cn1nc(-c2ccccc2)c(CSc2cccc(Cl)c2)c1Cl ?
Result: label 1

Problem: Per the assay record, what outcome was assigned to COc1ccc(N2C(=O)c3ccccc3NC2c2ccc(OC)c(CN3CCOCC3)c2)cc1 (centres undefined) ?
Result: label 0

Problem: Per the assay record, what outcome was assigned to O=C(COc1ccc([N+](=O)[O-])cc1Cl)Nn1cnnc1 ?
Result: label 0

Problem: Per the assay record, what outcome was assigned to COc1cccc(CNS(=O)(=O)c2ccc3c(c2)N(C(C)=O)CCS3)c1 ?
Result: label 0

Problem: Per the assay record, what outcome was assigned to O=C(COC(=O)c1cccs1)NCc1cccs1 ?
Result: label 0

Problem: Per the assay record, what outcome was assigned to Cc1ccccc1N1CCN(CC(=O)NCc2ccc(Cl)cc2)CC1 ?
Result: label 0

Problem: Per the assay record, what outcome was assigned to CCOC(=O)C1=C(c2ccccc2)O/C(=C(/C(=O)OC)C(F)(F)F)S1 ?
Result: label 0

Problem: Per the assay record, what outcome was assigned to Cc1ccc(-c2csc(NCCc3nc4cc(Cl)c(Cl)cc4n3CCOCCO)n2)cc1 ?
Result: label 1

Problem: Per the assay record, what outcome was assigned to Cc1ccc(-c2csc(-c3c[nH]c4ccccc34)n2)cc1 ?
Result: label 0

Problem: Per the assay record, what outcome was assigned to Cc1ccc(S(=O)(=O)c2c(COC(=O)c3cccc(Cl)c3)c(-c3ccccc3)nn2C)cc1 ?
Result: label 0

Problem: Per the assay record, what outcome was assigned to CC(=O)Nc1ccc(S(=O)(=O)NC(C)C(=O)OCC(=O)NC2CCCC2)cc1 (centres undefined) ?
Result: label 0

Problem: Per the assay record, what outcome was assigned to Cc1ccc(NC(=O)CC2C(=O)N(Cc3ccccc3)C(=S)N2NC(=O)c2cccc(F)c2)c(C)c1 (centres undefined) ?
Result: label 0
